target: human FGFR-3 (Homo sapiens (Human), UniProt P22607)
Sequence (P22607 397-806): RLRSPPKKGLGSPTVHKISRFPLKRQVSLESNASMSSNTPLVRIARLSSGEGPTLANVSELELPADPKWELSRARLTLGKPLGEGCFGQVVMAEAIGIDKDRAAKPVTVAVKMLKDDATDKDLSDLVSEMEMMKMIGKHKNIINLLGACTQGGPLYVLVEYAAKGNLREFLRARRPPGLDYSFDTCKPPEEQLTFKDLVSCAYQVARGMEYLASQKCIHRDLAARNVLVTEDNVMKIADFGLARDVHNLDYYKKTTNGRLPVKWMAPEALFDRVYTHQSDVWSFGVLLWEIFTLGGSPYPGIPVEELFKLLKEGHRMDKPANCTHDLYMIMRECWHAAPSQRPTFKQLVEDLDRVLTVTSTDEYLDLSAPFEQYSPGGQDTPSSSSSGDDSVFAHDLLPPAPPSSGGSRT
pIC50: −log10 of the molar value.
Param threshold (7) applies to pIC50; output True when value >= threshold, False when value < threshold.

compound="COc1cc(C)cc2cc(-c3cc(CNCC4CCN(C)CC4)n4ncnc(N)c34)sc12 [Example 61]" qualitative_label=True
compound="COc1cc(C)cc2cc(-c3cc(CN4CCC(O)CC4)n4ncnc(N)c34)sc12 [Example 88]" qualitative_label=True
compound="COc1cc(C)cc2cc(-c3cc(CN[C@H]4CC[C@@H](N(C)C)CC4)n4ncnc(N)c34)sc12 [Example 87]" qualitative_label=True

Does pIC50 meet or surpass 7 for Nc1nccn2c(C3CCC3)nc(-c3cc4ccccc4s3)c12 [WO 2007/061737 Example 120, reference compound] ? False

Data credit: patent US9475815B2
